- MEASUREMENT TARGET: DAT (Rattus norvegicus)
- Construct: rat striatum was the source for DAT, and cerebral cortex for SERT and NET; from tissue; P2 synaptosomal fraction for uptake
- Sequence (P23977 whole entry): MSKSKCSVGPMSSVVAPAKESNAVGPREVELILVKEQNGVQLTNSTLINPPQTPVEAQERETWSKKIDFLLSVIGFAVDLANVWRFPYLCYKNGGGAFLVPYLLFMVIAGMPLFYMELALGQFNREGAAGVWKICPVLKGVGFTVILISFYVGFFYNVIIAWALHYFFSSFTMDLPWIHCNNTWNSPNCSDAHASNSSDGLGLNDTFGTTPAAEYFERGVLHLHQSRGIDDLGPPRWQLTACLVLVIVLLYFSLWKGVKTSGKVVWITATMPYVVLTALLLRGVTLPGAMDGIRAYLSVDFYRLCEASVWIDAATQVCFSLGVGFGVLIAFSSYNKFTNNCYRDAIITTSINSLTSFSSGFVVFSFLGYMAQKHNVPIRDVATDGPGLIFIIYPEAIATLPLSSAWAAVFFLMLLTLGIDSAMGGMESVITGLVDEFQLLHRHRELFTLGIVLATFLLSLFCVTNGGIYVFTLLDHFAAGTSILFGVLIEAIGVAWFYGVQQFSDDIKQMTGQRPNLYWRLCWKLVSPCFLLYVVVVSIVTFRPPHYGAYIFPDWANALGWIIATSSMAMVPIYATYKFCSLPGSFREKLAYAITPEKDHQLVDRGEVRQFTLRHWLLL
- ASSAY PROTOCOL: Inhibition of [3H]WIN 35,428 binding to DAT
- TEST SETTINGS: Table 2; average ± SEM of three to eight experiments; read-out: DAT binding, IC50, [3H]Win 35,428
Consider the cut-off 800 nM. If the recorded IC50 is strictly smaller, the label is yes (1); if not, the label is no (0).

{"COMPOUND": "Ic1ccc(CN[C@H]2CC[C@@H](C(c3ccccc3)c3ccccc3)OC2)cc1 (relative stereo) [Compound 16m]", "CLASS LABEL": "yes (1)"}
{"COMPOUND": "c1ccc(CN[C@H]2CC[C@@H](C(c3ccccc3)c3ccccc3)OC2)cc1 (relative stereo) [Compound 16k]", "CLASS LABEL": "yes (1)"}
{"COMPOUND": "Clc1ccc(CN[C@H]2CC[C@@H](C(c3ccccc3)c3ccccc3)OC2)cc1Cl (relative stereo) [Compound 16i]", "CLASS LABEL": "yes (1)"}
{"COMPOUND": "Fc1ccc(CN[C@H]2CCO[C@@H](C(c3ccccc3)c3ccccc3)C2)cc1 (relative stereo) [Compound 7a]", "CLASS LABEL": "no (0)"}
{"COMPOUND": "Fc1ccc(CN[C@H]2CC[C@@H](C(c3ccccc3)c3ccccc3)OC2)cc1F (relative stereo) [Compound 16j]", "CLASS LABEL": "yes (1)"}
{"COMPOUND": "Fc1ccc(CN[C@@H]2CCO[C@@H](C(c3ccccc3)c3ccccc3)C2)cc1 (relative stereo) [Compound 7b]", "CLASS LABEL": "no (0)"}
{"COMPOUND": "Brc1ccc(CN[C@H]2CC[C@@H](C(c3ccccc3)c3ccccc3)OC2)cc1 (relative stereo) [Compound 16l]", "CLASS LABEL": "yes (1)"}

Kindly review the next compound as well.
Exercise: Confirm or reject: IC50 of Fc1ccc(CCN[C@H]2CC[C@@H](C(c3ccccc3)c3ccccc3)OC2)cc1 (relative stereo) [Compound 16p] lies strictly below 800 nM
Solution: yes (1)

* * *

Recorded measurements of melting point, one per entry
Structures can show the parent of a compound that is named as a salt.

Some compounds with recorded melting point:
{"COMPOUND": "N[C@H]1CC[C@@H](C(c2ccccc2)c2ccccc2)OC1 (relative stereo) (as salt: HCl)", "melting point": "260 to 261 °C"}
{"COMPOUND": "COc1ccc(CN[C@H]2CO[C@@H](C(c3ccccc3)c3ccccc3)C[C@@H]2O)cc1 (as salt: oxalate) [(+)-29a]", "melting point": "230 to 232 °C"}
{"COMPOUND": "N#Cc1ccc(CN[C@H]2CC[C@@H](C(c3ccccc3)c3ccccc3)OC2)cc1 (relative stereo) (as salt: oxalate) [Compound 16c]", "melting point": "241 to 242 °C"}

Exercise: Which melting point is reported for this compound? O=[N+]([O-])c1ccc(CN[C@H]2CC[C@@H](C(c3ccccc3)c3ccccc3)OC2)cc1 (relative stereo) (as salt: oxalate) [Compound 16d]
Solution: 236 to 238 °C

Exercise: Please give the result for COc1ccc(CN[C@@H]2CO[C@H](C(c3ccccc3)c3ccccc3)C[C@H]2O)cc1 (as salt: oxalate) [(−)-29a] too.
Solution: 230 to 232 °C

Exercise: Please give the result for O[C@@H]1C[C@@H](C(c2ccccc2)c2ccccc2)OC[C@H]1NCc1ccc(F)cc1 (as salt: oxalate) [(−)-29b] too.
Solution: 222 to 223 °C

Exercise: Please give the result for Fc1ccc(CN[C@H]2CC[C@@H](C(c3ccccc3)c3ccccc3)OC2)cc1F (relative stereo) (as salt: oxalate) [Compound 16j] too.
Solution: 234 to 235 °C

Exercise: Please give the result for COc1ccc(CN[C@@H]2CO[C@H](C(c3ccccc3)c3ccccc3)C[C@H]2O)c(OC)c1 (as salt: oxalate) [(−)-29e] too.
Solution: 208 to 210 °C

Exercise: Please give the result for Oc1ccc(CN[C@@H]2CC[C@H](C(c3ccccc3)c3ccccc3)OC2)cc1 (as salt: oxalate) [(+)-37a] too.
Solution: 136 to 138 °C

All figures here come from patent US8017791B2.
